# targetOrSystem: CDK2/CycE (Homo sapiens, UniProt P24941)
# methodSummary: CDK2/CycE kinase assay (TR-FRET, 2 mM ATP)
# experimentalConditions: 2 mM ATP (high ATP); median; read-out: CDK2/CyclinE, 2 mM ATP (high ATP), IC50 (median)
readoutLabel: pIC50
Conceptually, pIC50 converts a concentration in mol/L into minus its log10.

These recorded examples may help you get a feel for the data.
>>> reportedmeasurement("Brc1cnn2c(NCc3nc4ccccc4[nH]3)nc(N3CCN4CCC[C@H]4C3)nc12 [Example 148]")
4.90
>>> reportedmeasurement("CC1(C)CN(c2nc(NCc3nc4ccccc4[nH]3)n3ncc(Br)c3n2)CCN1 [Example 216]")
4.82
>>> reportedmeasurement("Cc1ccnc2[nH]c(CNc3nc(N4CCOCC4)nc4c(Br)cnn34)nc12 [Example 20]")
5.76
>>> reportedmeasurement("[O-][S+]1CCN(c2nc(NCc3nc4ccccc4[nH]3)n3ncc(Br)c3n2)CC1 [Example 144]")
5.11
>>> reportedmeasurement("C[C@@]1(O)CCN(c2nc(NCc3nc4ccccc4[nH]3)n3ncc(Br)c3n2)C1 (single isomer, unassigned) [Example 281]")
5.48
>>> reportedmeasurement("Fc1cc2nc(CNc3nc(N4CCOCC4)nc4c(Br)cnn34)[nH]c2cc1F [Example 341]")
5.03
>>> reportedmeasurement("CN1C[C@H]2C[C@@H]1CN2c1nc(NCc2nc3ccccc3[nH]2)n2ncc(Br)c2n1 [Example 218]")
5.24
>>> reportedmeasurement("CC(C)c1cnn2c(NCc3nc4ccccc4[nH]3)nc(N3CCCOCC3)nc12 [Example 8]")
4.95

Q: Report pIC50 for Cc1cccc2[nH]c(CNc3nc(N4CCOCC4)nc4c(Br)cnn34)nc12 [Example 150]
A: 5.36

Q: Report measured pIC50; entry is CC1(N)CCN(c2nc(NCc3nc4ccccc4[nH]3)n3ncc(Br)c3n2)CC1 [Example 290]
A: 5.14

Q: Tell me pIC50 reported for Clc1cc2nc(CNc3nc(N4CC5CCC(C4)N5)nc4c(C5CC5)cnn34)[nH]c2cc1Cl [Example 324]
A: 4.86

---

# Tested on: CAL-120, human breast adenocarcinoma cells
# methodSummary: Proliferation assay CAL-120 (crystal violet, 4 days)
# Assay type: cell-based
# experimentalConditions: Homo sapiens, CAL-120, 96 h, CAL-120 cells, median, read-out: Prolif-CAL-120, IC50-[mol/l] (median)
readoutLabel: pIC50
pIC50 here: minus log base 10 of the concentration, concentration in moles per litre.

>>> reportedmeasurement("CN1C2CCC1CN(c1nc(NCc3nc4c(F)cccc4[nH]3)n3ncc(C(F)(F)F)c3n1)C2 [Example 384]")
8.46
>>> reportedmeasurement("CN(C)C1CCN(c2nc(NCc3nc4ccccc4[nH]3)n3ncc(Br)c3n2)CC1 [Example 201]")
6.90
>>> reportedmeasurement("c1ccc2[nH]c(CNc3nc(N4CCOCC4)nc4c(C5CC5)cnn34)nc2c1 [Example 92]")
7.92

Next up:
Q: Determine from records and report pIC50 for COc1ccc2[nH]c(CNc3nc(N4CCOCC4)nc4c(C(F)(F)F)cnn34)nc2c1 [Example 257]
A: 7.97

---

# targetOrSystem: CDK12 (nuclear staining in CAL-120 cells) (Homo sapiens, UniProt Q9NYV4)
# Construct: endogenous in cells; host or cells: CAL-120 human breast cancer cells (DSMZ ACC 459)
# Sequence (Q9NYV4 whole entry): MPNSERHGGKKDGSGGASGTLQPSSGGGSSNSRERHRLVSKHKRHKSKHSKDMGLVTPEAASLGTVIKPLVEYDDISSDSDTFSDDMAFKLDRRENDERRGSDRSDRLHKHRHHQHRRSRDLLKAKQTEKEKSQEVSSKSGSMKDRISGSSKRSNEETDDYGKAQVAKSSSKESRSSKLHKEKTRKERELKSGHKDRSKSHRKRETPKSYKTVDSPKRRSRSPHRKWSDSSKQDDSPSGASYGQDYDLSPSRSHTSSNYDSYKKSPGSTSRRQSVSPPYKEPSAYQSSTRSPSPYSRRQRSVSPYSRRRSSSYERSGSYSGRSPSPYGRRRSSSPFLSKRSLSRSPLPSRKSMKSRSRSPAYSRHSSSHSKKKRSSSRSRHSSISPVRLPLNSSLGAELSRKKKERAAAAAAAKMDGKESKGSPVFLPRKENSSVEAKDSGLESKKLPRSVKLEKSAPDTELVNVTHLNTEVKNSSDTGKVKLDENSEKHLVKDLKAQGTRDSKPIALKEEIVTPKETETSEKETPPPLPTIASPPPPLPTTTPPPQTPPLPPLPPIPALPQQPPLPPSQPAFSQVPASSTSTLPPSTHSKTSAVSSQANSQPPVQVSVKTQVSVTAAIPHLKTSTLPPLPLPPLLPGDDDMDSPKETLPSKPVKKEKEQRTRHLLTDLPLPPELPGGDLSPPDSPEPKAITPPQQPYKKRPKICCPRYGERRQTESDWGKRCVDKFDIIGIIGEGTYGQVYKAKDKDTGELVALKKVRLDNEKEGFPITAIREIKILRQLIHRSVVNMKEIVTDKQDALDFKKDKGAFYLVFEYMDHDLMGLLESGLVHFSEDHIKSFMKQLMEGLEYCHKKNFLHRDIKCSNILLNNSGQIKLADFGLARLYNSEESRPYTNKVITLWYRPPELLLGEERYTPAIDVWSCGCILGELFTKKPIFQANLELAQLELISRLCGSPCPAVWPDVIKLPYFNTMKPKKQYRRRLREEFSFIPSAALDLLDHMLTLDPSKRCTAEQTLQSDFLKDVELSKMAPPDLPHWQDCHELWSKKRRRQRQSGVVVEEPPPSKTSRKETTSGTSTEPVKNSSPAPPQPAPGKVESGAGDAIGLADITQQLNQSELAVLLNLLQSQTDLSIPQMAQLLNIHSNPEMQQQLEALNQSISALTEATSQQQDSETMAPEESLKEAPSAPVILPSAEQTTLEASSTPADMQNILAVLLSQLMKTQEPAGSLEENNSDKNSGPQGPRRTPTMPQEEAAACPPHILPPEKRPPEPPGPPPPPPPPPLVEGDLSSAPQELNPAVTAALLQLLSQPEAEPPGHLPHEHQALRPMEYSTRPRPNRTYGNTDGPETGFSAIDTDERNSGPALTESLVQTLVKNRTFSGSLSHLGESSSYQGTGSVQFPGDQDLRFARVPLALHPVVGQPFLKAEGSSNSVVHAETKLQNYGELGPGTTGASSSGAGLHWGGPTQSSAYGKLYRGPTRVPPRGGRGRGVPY
# Sequence (O75909 whole entry partner): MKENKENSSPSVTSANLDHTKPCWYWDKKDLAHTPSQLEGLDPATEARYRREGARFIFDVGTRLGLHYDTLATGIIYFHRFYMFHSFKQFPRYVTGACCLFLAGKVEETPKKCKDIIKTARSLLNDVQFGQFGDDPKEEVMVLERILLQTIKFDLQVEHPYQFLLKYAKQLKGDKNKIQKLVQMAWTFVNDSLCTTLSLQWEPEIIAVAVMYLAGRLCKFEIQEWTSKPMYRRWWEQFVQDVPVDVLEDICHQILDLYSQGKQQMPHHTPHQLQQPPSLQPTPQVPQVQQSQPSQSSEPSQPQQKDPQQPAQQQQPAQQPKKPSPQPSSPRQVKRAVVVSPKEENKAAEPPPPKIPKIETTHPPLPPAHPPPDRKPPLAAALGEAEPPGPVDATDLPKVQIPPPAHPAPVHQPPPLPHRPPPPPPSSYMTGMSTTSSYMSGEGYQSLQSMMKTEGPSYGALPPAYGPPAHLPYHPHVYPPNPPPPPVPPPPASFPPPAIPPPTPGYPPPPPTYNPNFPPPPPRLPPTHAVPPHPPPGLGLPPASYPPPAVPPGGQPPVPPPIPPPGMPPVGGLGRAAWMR
# methodSummary: CDK12 nuclear protein level: immunofluorescence/high content analysis (CAL-120)
# Format: cell-based
# experimentalConditions: ratio of IC50 CDK12 high ATP kinase assay to DC50 CDK12 degradation (IF, CAL-120)
readoutLabel: (IC50 CDK12 high ATP) to (Degradation DC50 CDK12) ratio
The answer should be a number; do not append a unit.

>>> reportedmeasurement("CN1C2CCC1CN(c1nc(NCc3nc4c(F)cccc4[nH]3)n3ncc(C(F)(F)F)c3n1)C2")
735

Q: Fill in (IC50 CDK12 high ATP) to (Degradation DC50 CDK12) ratio for record CC(C)c1cnn2c(NCc3ncc(-c4ccccc4)[nH]3)nc(N3CCOCC3)nc12
A: 115

Q: Given the compound Cc1cc2nc(CNc3nc(N4CCN(C)CC4)nc4c(C5CC5)cnn34)[nH]c2cc1C , write its reported (IC50 CDK12 high ATP) to (Degradation DC50 CDK12) ratio.
A: 2616

Q: Return the recorded (IC50 CDK12 high ATP) to (Degradation DC50 CDK12) ratio value; entry: CN1CCN(c2nc(NCc3nc4cc(Cl)ccc4[nH]3)n3ncc(C(F)(F)F)c3n2)CC1
A: 1968

---

# System: CAL-120, human breast adenocarcinoma cells
# methodSummary: Proliferation assay CAL-120 (crystal violet, 4 days)
# Assay type: cell-based
# experimentalConditions: Homo sapiens, CAL-120, 96 h, CAL-120 cells, median, read-out: Prolif-CAL-120, IC50-[mol/l] (median)
Category | rule: reported IC50 within range, see low class: < 7 nM; middle class: ≥ 7 nM and < 20 nM; high class: ≥ 20 nM

Worked examples, 8 compounds total:
>>> labelvalue("Brc1cnn2c(NCc3nc4ccccc4[nH]3)nc(N3CCCCC3)nc12 [Example 46]")
"high class"
>>> labelvalue("Fc1ccccc1-c1cnc(CNc2nc(N3CCOCC3)nc3c(Br)cnn23)[nH]1 [Example 86]")
"middle class"
>>> labelvalue("c1ccc2[nH]c(CNc3nc(N4CCOCC4)nc4c(C5CCCC5)cnn34)nc2c1 [Example 244]")
"high class"
>>> labelvalue("CN1CCN(c2nc(NCc3nc4c(F)c(Cl)ccc4[nH]3)n3ncc(C4CC4)c3n2)CC1 [Example 371]")
"low class"
>>> labelvalue("Brc1cnn2c(NCc3nc4ccccc4[nH]3)nc(N3CC4CCC3CO4)nc12 (centres unmarked) [Example 352]")
"middle class"
>>> labelvalue("Brc1cnn2c(NCc3nc4ccccc4[nH]3)nc(NCC3CC3)nc12 [Example 284]")
"high class"
>>> labelvalue("Fc1ccc2[nH]c(CNc3nc(N4CCOCC4)nc4c(C5CC5(F)F)cnn34)nc2c1 (single isomer, unassigned) [Example 314]")
"middle class"
>>> labelvalue("CN1CCN(c2nc(NCc3nc4ccccc4[nH]3)n3ncc(-c4ccncc4)c3n2)CC1 [Example 242]")
"high class"

Q: Which category fits this record: CN1CC[C@H]2CN(c3nc(NCc4nc5ccccc5[nH]4)n4ncc(Br)c4n3)C[C@H]21 [Example 179]
A: middle class

Q: Class? Entry: FC(F)(F)c1ccc2[nH]c(CNc3nc(N4CCOCC4)nc4c(C5CC5)cnn34)nc2c1 [Example 322]
A: middle class

Q: Which class does Fc1ccc2[nH]c(CNc3nc(N4CCOCC4)nc4c(Cl)cnn34)nc2c1F [Example 357] fall in?
A: low class

Q: Hey, which category is CN1CCN(c2nc(NCc3nc4c(F)c(F)ccc4[nH]3)n3ncc(Br)c3n2)CC1 [Example 133] in, do you know?
A: low class

Q: Please indicate the class for Fc1ccc2[nH]c(CNc3nc(N4CCNCC4)nc4c(C5CC5)cnn34)nc2c1F [Example 174] based on its IC50.
A: low class

---

Each record here notes measured pIC50.
# targetOrSystem: CDK2/CycE (Homo sapiens, UniProt P24941)
# methodSummary: CDK2/CycE kinase assay (TR-FRET, 2 mM ATP)
# experimentalConditions: 2 mM ATP (high ATP); median; read-out: CDK2/CyclinE, 2 mM ATP (high ATP), IC50 (median)
# Procedure: CDK2/CycE-inhibitory activity of compounds of the present invention was quantified employing the CDK2/CycE TR-FRET assay as described in the following paragraphs. […] The resulting mixture was incubated 1 h at 22° C. to allow the formation of complex between the phosphorylated biotinylated peptide and the detection reagents. Subsequently the amount of phosphorylated substrate was evaluated by measurement of the resonance energy transfer from the Eu-chelate to the streptavidine-XL. […]
When answering, recall that pIC50 equals minus log10 of the concentration in mol/L, and write that number alone.

Some compounds with known pIC50 results, for comparison:
>>> reportedmeasurement("CN(CC(C)(C)O)c1nc(NCc2nc3c(F)c(F)ccc3[nH]2)n2ncc(Cl)c2n1 [Example 359]")
4.91
>>> reportedmeasurement("N[C@@H]1[C@@H]2C[C@H]1CN(c1nc(NCc3nc4ccccc4[nH]3)n3ncc(Br)c3n1)C2 [Example 289]")
5.28
>>> reportedmeasurement("CC1CN(C)CCN1c1nc(NCc2nc3ccccc3[nH]2)n2ncc(Br)c2n1 (single isomer, unassigned; enantiomer 1) [Example 260]")
5.53

Q: Read off the recorded pIC50 for OC[C@H]1CCCCN1c1nc(NCc2nc3ccccc3[nH]2)n2ncc(Br)c2n1 [Example 60]
A: 6.13

Q: Read off the recorded pIC50 for CN(c1nc(NCc2nc3ccccc3[nH]2)n2ncc(Br)c2n1)[C@H]1C[C@@H](O)C1 [Example 364]
A: 5.68
